Biological target: K-Ras G13C (Homo sapiens (Human), UniProt P01116+P62937, G13C)
Sequence (P01116-2 other isoform, or with tags, fused parts or gaps G13C): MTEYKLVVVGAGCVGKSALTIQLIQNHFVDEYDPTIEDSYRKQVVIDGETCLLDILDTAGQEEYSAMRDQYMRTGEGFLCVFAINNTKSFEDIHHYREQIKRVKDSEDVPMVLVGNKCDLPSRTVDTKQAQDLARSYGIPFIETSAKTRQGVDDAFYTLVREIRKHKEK
Sequence (P62937 whole entry): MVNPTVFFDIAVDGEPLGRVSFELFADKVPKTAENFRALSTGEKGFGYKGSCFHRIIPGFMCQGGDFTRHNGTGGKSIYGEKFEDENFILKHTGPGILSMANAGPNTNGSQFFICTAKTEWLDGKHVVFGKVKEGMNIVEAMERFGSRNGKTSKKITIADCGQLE
Assay: Ras-Raf (BRAF RBD) disruption / FRET / MOA assay, KRAS G13C
Format: biochemical
Conditions: KRAS G13C; Ras-Raf disruption/FRET/MOA assay; read-out: IC50* KRAS G13C FRET data
pIC50: −log10 of the molar value.
Listing: pIC50 of selected compounds

CCn1c(-c2cccnc2COC)c2c3cc(ccc31)-c1cc(O)cc(c1)C[C@H](NC(=O)[C@H](C(C)C)N(C)C(=O)[C@H]1CCN(C(=O)C#CC3(N(C)C)COC3)C1)C(=O)N1CCC[C@H](N1)C(=O)OCC(C)(C)C2 = 6.00 to 7.00
CCn1c(-c2ccccc2CCOC)c2c3cc(ccc31)-c1cc(O)cc(c1)C[C@H](NC(=O)[C@H](C(C)C)N(C)C(=O)c1ccc(N(C)C(=O)/C=C/CN(C)C)cc1)C(=O)N1CCC[C@H](N1)C(=O)OCC(C)(C)C2 = 6.00 to 7.00
C=CC(=O)N1CC[C@H](C(=O)N(C)[C@H](C(=O)N[C@@H]2C(=O)N3CCC[C@H](N3)C(=O)OCC(C)(C)Cc3c(-c4cncnc4)n(CC)c4ccc(cc34)-c3cccc(c3)[C@H]2O)C(C)C)C1 = < 5.00

Lab note: next compound to report on.
Entry CCn1c(-c2cccnc2[C@H](C)OC)c2c3cc(ccc31)-c1cc(O)cc(c1)C[C@H](NC(=O)[C@H](C(C)C)N1CCC3(CCN(C(=O)/C=C/CN(C)C)CC3)C1=O)C(=O)N1CCC[C@H](N1)C(=O)OCC(C)(C)C2 (atropisomer, axis not shown) has what pIC50?
7.00 to 8.00

---

Listing: IC50 of selected molecules
Target: KRAS G13D (Homo sapiens (Human), UniProt P01116+P62937, G13D)
Sequence (P01116-2 other isoform, or with tags, fused parts or gaps G13D, one chain of several): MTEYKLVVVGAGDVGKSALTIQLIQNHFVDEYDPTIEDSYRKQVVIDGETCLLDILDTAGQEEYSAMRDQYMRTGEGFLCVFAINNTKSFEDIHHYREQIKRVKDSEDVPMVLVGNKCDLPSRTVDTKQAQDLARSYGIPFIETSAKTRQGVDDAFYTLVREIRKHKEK
Assay: Ras-Raf (BRAF RBD) disruption / FRET / MOA assay, KRAS G13D
Assay type: biochemical
Conditions: read-out: IC50* KRAS G13D FRET data

C=CC(=O)N1CC[C@H](C(=O)N(C)[C@H](C(=O)N[C@H]2CN(C)C(=O)Cc3ccc4c(c3)c(c(-c3cccnc3COC)n4CC)CC(C)(C)COC(=O)[C@@H]3CCCN(N3)C2=O)C(C)C)C1 = > 10000 nM
CCn1c(-c2cccnc2[C@H](C)OC)c2c3cc(ccc31)-c1cccc(c1)C[C@H](NC(=O)[C@H](C(C)C)N1CC[C@]3(CCN(C(=O)C#CC(C)(C)N(C)C)C3)C1=O)C(=O)N1CCC[C@H](N1)C(=O)OCC(C)(C)C2 (atropisomer, axis not shown) = 1000 to 10000 nM
CCn1c(-c2ccccc2CN(C)C)c2c3cc(ccc31)-c1cc(O)cc(c1)C[C@H](NC(=O)[C@H](C(C)C)N(C)C(=O)c1ncc(NC(=O)/C=C/CN(C)C)n1C)C(=O)N1CCC[C@H](N1)C(=O)OCC(C)(C)C2 = 1000 to 10000 nM

Entry C=CC(=O)N1CCC2(CCCN(C(=O)N(C)[C@H](C(=O)N[C@H]3Cc4nc(cs4)-c4ccc5c(c4)c(c(-c4cccnc4[C@H](C)OC)n5CC)CC(C)(C)COC(=O)[C@@H]4CCCN(N4)C3=O)C(C)C)C2)CC1 (atropisomer, axis not shown) has what IC50?
1000 to 10000 nM

And the next one, C=CC(=O)N1CCO[C@H]2CN(C(=O)N(C)[C@H](C(=O)N[C@H]3Cc4cccc(c4)-c4ccc5c(c4)c(c(-c4cccnc4[C@H](C)OC)n5CC)CC(C)(C)COC(=O)[C@@H]4CCCN(N4)C3=O)C(C)C)C[C@H]21 (atropisomer, axis not shown) ?
1000 to 10000 nM

And the next one, CCn1c(-c2cccnc2[C@H](C)OC)c2c3cc(ccc31)-c1cc(F)cc(c1)C[C@H](NC(=O)[C@@H](COC1CN(C(=O)C#CC(C)(C)N(C)C)C1)C(C)C)C(=O)N1CCC[C@H](N1)C(=O)OCC(C)(C)C2 (atropisomer, axis not shown) ?
> 10000 nM

And the next one, C=CC(=O)N1CC2(CCN(C(=O)N(C)[C@H](C(=O)N[C@H]3Cc4cccc(c4)-c4ccc5c(c4)c(c(-c4cccnc4[C@H](C)OC)n5CC)CC(C)(C)COC(=O)[C@@H]4CCCN(N4)C3=O)C(C)C)CC2)C1 (atropisomer, axis not shown) ?
1000 to 10000 nM

And the next one, C=CS(=O)(=O)N1CCC2(CCN([C@H](C(=O)N[C@H]3Cc4cc(O)cc(c4)-c4ccc5c(c4)c(c(-c4cccnc4[C@H](C)OC)n5CC)CC(C)(C)COC(=O)[C@@H]4CCCN(N4)C3=O)C(C)C)C2=O)C1 (stereo partly drawn) ?
10 to 100 nM
